FYI, the data here is from paper PMC8987054.

- Test system: E. faecium 9-F-6
- Construct: 9-F-6 (ST872)
- Assay Details: microbe, parasite or virus in culture
- Parameters: Gradient test MIC (MIC Test Strip, Liofilchem), multidrug-resistant clinical isolate
- Condition Context: Enterococcus faecium, 9F6, read-out: MIC GRAD
Here the recorded MIC is given for each entry.
Property Measured: MIC

• O=C(N[C@H](CO)[C@H](O)c1ccc([N+](=O)[O-])cc1)C(Cl)Cl = 16 µg/mL
• CCC[C@@H]1C[C@@H](C(=O)N[C@@H]([C@H]2O[C@H](SC)[C@H](O)[C@@H](O)[C@H]2O)[C@H](C)Cl)N(C)C1 = > 256 µg/mL
• CN[C@H](CC(C)C)C(=O)N[C@H]1C(=O)N[C@@H](CC(N)=O)C(=O)N[C@H]2C(=O)N[C@H]3C(=O)N[C@H](C(=O)N[C@H](C(=O)O)c4cc(O)cc(O)c4-c4cc3ccc4O)[C@H](O)c3ccc(c(Cl)c3)Oc3cc2cc(c3O[C@@H]2O[C@H](CO)[C@@H](O)[C@H](O)[C@H]2O[C@H]2C[C@](C)(N)[C@H](O)[C@H](C)O2)Oc2ccc(cc2Cl)[C@H]1O = > 256 µg/mL
• CNC(C)[C@@H]1CC[C@@H](N)[C@@H](O[C@H]2[C@H](O)[C@@H](O[C@H]3OC[C@](C)(O)[C@H](NC)[C@H]3O)[C@H](N)C[C@@H]2N)O1 (some centres unmarked) = > 1020 µg/mL
• CC1(C)S[C@@H]2[C@H](NC(=O)[C@H](N)c3ccccc3)C(=O)N2[C@H]1C(=O)O = > 256 µg/mL
